# method description: qHTS of pediatric cancer cell lines to identify multiple opportunities for drug repurposing: Primary screen for LAN-5 cells (AID 1347100)
# setup conditions: LAN-5 neuroblastoma viability, CellTiter-Glo luminescence, 48 h; series mostly up to 46 µM
Inconclusive results are not listed. Activity calls are given as the source filed them. Calls follow the shape of the dose curve; as a rule, active = well fitted cell-killing curve with a large enough effect; inconclusive = small, poorly fitted or top-dose-only effect; inactive = no such curve, though single readings can be large or run the other way.
Reply using exactly one outcome from active, inactive

O=c1[nH]cnc2[nH]ncc12 inactive
N#Cc1ccc(C(c2ccc(C#N)cc2)n2cncn2)cc1 inactive
Cc1c(CN2CCN(C(=O)C(C)C)CC2)sc2c(N3CCOCC3)nc(-c3cnc(N)nc3)nc12 active
CCC(C)(C)C(=O)O[C@H]1C[C@@H](C)C=C2C=C[C@H](C)[C@H](CC[C@@H]3C[C@@H](O)CC(=O)O3)[C@H]21 inactive
O=C(c1cc(Cc2n[nH]c(=O)c3ccccc23)ccc1F)N1CCN(C(=O)C2CC2)CC1 active
O=C(C=Cc1ccc(/C=C/C(=O)Nc2ccc(C3=NCCN3)cc2)cc1)Nc1ccc(C2=NCCN2)cc1 inactive
CNC(=O)c1ccc(N2C(=S)N(c3ccc(C#N)c(C(F)(F)F)c3)C(=O)C2(C)C)cc1F inactive
CCCc1nn(C)c2c(=O)[nH]c(-c3cc(S(=O)(=O)N4CCN(C)CC4)ccc3OCC)nc12 inactive

Query: Please indicate how the test categorized CS(=O)(=O)c1cccc(CNc2nc(Nc3ccc4c(c3)CCC(=O)N4)ncc2C(F)(F)F)c1 .
Result: active

###

# method description: Quantitative High-Throughput drug screen in 47 multiple myeloma cell lines against the NCATS MIPE library collection: KMS28BM_JCRB cell viability assay (AID 1919874); also: nearly all actives have a fitted effect of over 35% in size
# setup conditions: CellTiter-Glo ATP, 48 h; series mostly up to 45.8 µM
Inconclusive results are not listed. Active and inactive are the calls of the source. Calls follow the shape of the dose curve; as a rule, active = well fitted cell-killing curve with a large enough effect; inconclusive = small, poorly fitted or top-dose-only effect, or effect the other way; inactive = no such curve, though single readings can be large or run the other way.
Reply using exactly one outcome from true (1) for active, false (0) for inactive

compound	cat
COc1ccccc1[C@H](c1cccc2ccccc12)[C@@](C)(C#N)C(=O)N1CCC(c2cccc(C(F)(F)F)c2)CC1	true (1)

Query: Please indicate how the test categorized CN(C)C(=O)c1ccc(S(=O)(=O)c2ccc(NC(=O)[C@@](C)(O)C(F)(F)F)c(Cl)c2)cc1 .
Result: false (0)

Query: Please indicate how the test categorized Oc1ccc(C2CNCCc3c2cc(O)c(O)c3Cl)cc1 (centres undefined) .
Result: false (0)

Query: Please indicate how the test categorized OC[C@H](Cc1ccccc1)Nc1nc(Oc2ccc3c(c2)CCC3)nc2c1ncn2Cc1ccc(-c2ccccc2)cc1 .
Result: false (0)

Query: Please indicate how the test categorized COc1cc2nccc(Oc3ccc(NC(=O)NC4CC4)c(Cl)c3)c2cc1C(N)=O .
Result: true (1)

Query: Please indicate how the test categorized COc1c(Cl)cc2c([nH]c3cnccc32)c1NC(=O)c1cccnc1C .
Result: true (1)

Query: Please indicate how the test categorized COc1cc(F)c(F)c(Nc2ccc(I)cc2F)c1NS(=O)(=O)C1(C[C@H](O)CO)CC1 .
Result: true (1)

Query: Please indicate how the test categorized COc1cc2c(cc1OC)CN(CCc1ccc(NC(=O)c3cccc4c(=O)c5cccc(OC)c5[nH]c34)cc1)CC2 .
Result: false (0)

Query: Please indicate how the test categorized Cc1ccc(-n2nc(C(C)(C)C)cc2NC(=O)Nc2ccc(OCCN3CCOCC3)c3ccccc23)cc1 .
Result: false (0)

###

# method description: Quantitative High-Throughput drug screen in 47 multiple myeloma cell lines against the NCATS MIPE library collection: OPM1_PLB cell viability assay (AID 1918989); also: nearly all actives have a fitted effect of over 40% in size
# setup conditions: CellTiter-Glo, 48 h; series mostly up to 45.8 µM
Records with an inconclusive call do not appear. The source made the active and inactive calls. Calls follow the shape of the dose curve; as a rule, active = well fitted cell-killing curve with a large enough effect; inconclusive = small, poorly fitted or top-dose-only effect, or effect the other way; inactive = no such curve, though single readings can be large or run the other way.
Reply using exactly one outcome from y for active, n for inactive

Would you please look over these solved cases?
compound	cat
CC(C=CC1=C(C)CCCC1(C)C)=CC=CC(C)=CC(=O)O	y
CC1(C)SCCN(S(=O)(=O)c2ccc(OCC#CCO)cc2)[C@@H]1C(=O)NO	n
S=C(NCc1ccc2c(c1)OCO2)N1CCN(c2ncnc3c2oc2ccccc23)CC1	y
COc1cc(Oc2ccnc3cc(OC)c(OC)cc23)ccc1NC(=O)NC(C)c1nccs1 (stereo unspecified)	y
CCC(C)n1ncn(-c2ccc(N3CCN(c4ccc(OC[C@H]5CO[C@](Cn6cncn6)(c6ccc(Cl)cc6Cl)O5)cc4)CC3)cc2)c1=O (stereo partly specified)	n

Query: Please indicate how the test categorized O=C(NOC[C@H](O)CO)c1ccc(F)c(F)c1Nc1ccc(I)cc1F .
Result: y

Query: Please indicate how the test categorized Cc1ccccc1C(OCCN(C)C)c1ccccc1 (stereo unspecified) .
Result: n

Query: Please indicate how the test categorized O=C(Nc1cccnc1)N1CCC(Cc2cccc(Oc3ccc(C(F)(F)F)cn3)c2)CC1 .
Result: y

Query: Please indicate how the test categorized CCCc1nc2c(C)cc(-c3nc4ccccc4n3C)cc2n1Cc1ccc(-c2ccccc2C(=O)O)cc1 .
Result: n

Query: Please indicate how the test categorized Cc1cc2c(C(C)C)c(O)c(O)c(C=O)c2c(O)c1-c1c(C)cc2c(C(C)C)c(O)c(O)c(C=O)c2c1O .
Result: y

Query: Please indicate how the test categorized CNC(=O)c1ccc(N2C(=S)N(c3ccc(C#N)c(C(F)(F)F)c3)C(=O)C2(C)C)cc1F .
Result: n

###

# method description: Cell Proliferation Assay against the TMD8 Cell Line (AID 651645);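 also: cells exposed to compound for 48 h before reading; 100% = DMSO and 0% = 9.2 µM bortezomib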
# setup conditions: TMD8 DLBCL cell line proliferation/viability; at 46.1 µM (top of the series) unless noted
assay readout: viability (% of control) (%)
Numbers only, in %.

compound	viability (% of control) (%)
Cc1cccc(-c2[nH]c(C(C)(C)C)nc2-c2ccc3nccnc3c2)n1	34
C#Cc1cccc(Nc2ncnc3cc(OCCOC)c(OCCOC)cc23)c1	58
COc1ccc(-c2ccc3c(N4CCOCC4)nc(N4C[C@@H](C)O[C@@H](C)C4)nc3n2)cc1CO	29.5

// below: viability (% of control) requested for another compound
Query: Specify reported viability (% of control) for the compound shown: O=C1CCCC2=C1C(c1[nH]ncc1Cl)N=C(Nc1nc3ccccc3o1)N2 (stereo not given)
Result: 75.7

###

# method description: qHTS of pediatric cancer cell lines to identify multiple opportunities for drug repurposing: Primary screen for NB-EBc1 cells (AID 1347095);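 also: plate controls were DMSO neutral control for no effect and bortezomib for full effect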
# setup conditions: NB-EBc1 neuroblastoma viability, CellTiter-Glo luminescence, 48 h; series mostly up to 46 µM
Records with an inconclusive call do not appear. Activity calls are given as the source filed them. Calls follow the shape of the dose curve; as a rule, active = well fitted cell-killing curve with a large enough effect; inconclusive = small, poorly fitted or top-dose-only effect; inactive = no such curve, though single readings can be large or run the other way.
Reply using exactly one outcome from active, inactive

Query: Please indicate how the test categorized COc1cc2c(cc1OC)CN(CCc1ccc(NC(=O)c3cccc4c(=O)c5cccc(OC)c5[nH]c34)cc1)CC2 .
Result: inactive

Query: Please indicate how the test categorized Cc1c(C)c2c(c(C)c1O)CCC(C)(COc1ccc(CC3SC(=O)NC3=O)cc1)O2 (stereo not drawn) .
Result: inactive

Query: Please indicate how the test categorized CC(=O)Oc1ccccc1C(=O)O .
Result: inactive

Query: Please indicate how the test categorized O=C1CCc2cc(OCCCCc3nnnn3C3CCCCC3)ccc2N1 .
Result: inactive

Query: Please indicate how the test categorized NC[C@H](O)c1ccc(O)c(O)c1 .
Result: inactive

###

Assign cell viability, % of control (lower = more cytotoxic) to each entry below.
# method description: High-throughput drug toxicity screening in the BPDCN cell line Gen2.2 (AID 1224824);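 also: cells exposed to compounds for 48 h before reading; 100% = DMSO and 0% = bortezomib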
# setup conditions: Gen2.2 BPDCN cells; at 45.8 µM (top of the series) unless noted
One number for each entry, in %.

compound	quantitative result
C[C@]1(c2nc3c(C(N)=O)cccc3[nH]2)CCCN1	50.9
CCOc1cc(C(=O)Nc2ccc(Cl)c(-c3nc4ccccc4[nH]3)c2)cc(OCC)c1OCC	0.788
COc1cc(F)c(F)c(Nc2ccc(I)cc2F)c1NS(=O)(=O)C1(C[C@H](O)CO)CC1	27.8
CCCCCCCc1ccc(CCc2cccc(O)c2C(=O)O)cc1	161
CC(=O)NC(C)c1ccc(Oc2ccc(OC(C)C)cc2)cc1 (centres undefined)	281
CCc1cc(Nc2nccc(-c3c(-c4ccc(OC)c(C(=O)Nc5c(F)cccc5F)c4)nc4ccccn34)n2)c(OC)cc1N1CCC(N2CCN(S(C)(=O)=O)CC2)CC1	179
C1COC(NC(C2CC2)C2CC2)=N1	33.1
CCOc1ccc(Cc2cc([C@@H]3O[C@H](CO)[C@@H](O)[C@H](O)[C@@H]3O)ccc2Cl)cc1	55.1

Dear reader, for each entry below, please note its cell viability, % of control (lower = more cytotoxic).
1. CCN(CC)CCCC(C)Nc1ccnc2cc(Cl)ccc12 (centres undefined)
2. NC(N)=NC(=O)c1nc(Cl)c(N)nc1N
3. Nc1ccc(S(=O)(=O)Nc2ccnn2-c2ccccc2)cc1

Result:
103
12.8
153

Dear reader, for each entry below, please note its cell viability, % of control (lower = more cytotoxic).
1. CN[C@@H](C)C(=O)N[C@H]1CCCC[C@H]2CC[C@@H](C(=O)N[C@@H](c3ccccc3)c3cn(CCCCc4ccc(CCCCn5cc([C@@H](NC(=O)[C@@H]6CC[C@@H]7CCCC[C@H](NC(=O)[C@H](C)NC)C(=O)N76)c6ccccc6)nn5)cc4)nn3)N2C1=O
2. Cc1ccc(NC(=O)c2cccc(C(C)(C)C#N)c2)cc1Nc1ccc2ncn(C)c(=O)c2c1
3. Cc1c(C)c2c(c(C)c1O)CCC(C)(COc1ccc(CC3SC(=O)NC3=O)cc1)O2 (centres undefined)
4. COc1cc(Nc2ncc3c(n2)-c2ccc(Cl)cc2C(c2c(F)cccc2OC)=NC3)ccc1C(=O)O
5. COc1ccc(CCN2CCN(CCCc3ccccc3)CC2)cc1OC

Result:
28
8.79
31.1
24.8
340

Dear reader, for each entry below, please note its cell viability, % of control (lower = more cytotoxic).
1. Nc1cccc(S(=O)(=O)N2CCCN(S(=O)(=O)c3ccc4c(c3)OCCO4)CC2)c1
2. NC(=O)c1ccc(I)c([N+](=O)[O-])c1

Result:
1: 162; 2: 44.8

Taken from PubChem BioAssay (NCATS).
